- target.or.system: UniProt Q99705
- Sequence (Q99705 whole entry): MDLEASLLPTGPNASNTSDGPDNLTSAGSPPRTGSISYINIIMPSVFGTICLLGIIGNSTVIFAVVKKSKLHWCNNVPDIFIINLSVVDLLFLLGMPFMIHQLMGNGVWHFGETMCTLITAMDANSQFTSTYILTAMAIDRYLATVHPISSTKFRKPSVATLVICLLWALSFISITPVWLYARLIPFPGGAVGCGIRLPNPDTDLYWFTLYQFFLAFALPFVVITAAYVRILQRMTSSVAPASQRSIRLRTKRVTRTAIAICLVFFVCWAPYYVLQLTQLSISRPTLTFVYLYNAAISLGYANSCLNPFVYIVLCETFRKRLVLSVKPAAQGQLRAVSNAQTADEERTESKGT
- protocol.text: Antagonist activity against human MCH1 receptor
property: Ki (nM)
Write the answer as a number in nM, unit excluded.

Check out these entries, answers already filled in.
>>> observed_result("N#Cc1cccc(-c2ccc(CN(CCCN3CCCC3)C(=O)Nc3ccc(F)c(Cl)c3)cc2)c1")
48
>>> observed_result("CC(C)(c1ccc(-c2cccc(C#N)c2)cc1)N(CC(=O)Nc1cc(Cl)cc(Cl)c1)C(=O)CN1CCCC1")
131
>>> observed_result("N#Cc1cccc(-c2ccc(CN(CCCN3CCCC3)C(=O)Nc3cc(Cl)cc(Cl)c3)cc2)c1")
48

Moving on to the next molecule.
query: Could you share which Ki value was measured for C[C@H](c1ccc(-c2cccc(C#N)c2)cc1)N(CC(=O)Nc1cc(Cl)cc(Cl)c1)C(=O)CCCN1CC[C@H](O)C1 ?
result: 76

Data credit: ChEMBL document CHEMBL1141941
